- experimentalSystem: Human GO (Homo sapiens, UniProt Q9UJM8)
- Construct: purchased Novus Biologicals NBP1-72412
- assayInfo: GO enzymatic assay (coupled fluorescence/HRP assay, glycolate substrate)
- Format: biochemical
- measurementConditions: Table 2; read-out: Range (range of IC50 values calculated from the enzymatic assays)
- Procedure: Assay 1: GO Enzymatic Assay GO was incubated with its substrate, glycolate, in 50 mM potassium phosphate buffer, pH 7. […] The enzyme was optimized and the kinetics was determined. Compound inhibition was determined by adding various concentrations of inhibitors in the GO enzyme assay. […]
propertyMeasured: IC50

Below: 3 compounds and their reported IC50.
| compound | IC50 |
| --- | --- |
| O=C(O)c1[nH]nnc1OCc1ccc(Cl)c(Cl)c1 [Compound 269] | < 100 nM |
| N#Cc1ccc([C@H]2CC[C@@H](Oc3nn[nH]c3C(=O)O)CC2)cc1 [Compound 365] | < 100 nM |
| O=C(O)c1[nH]nnc1OC1CCN(c2ccc(C(F)(F)F)cc2)CC1 [Compound 287, 2,2,2-trifluoroacetate] | < 100 nM |

We now examine a further compound.
Query :: Item under review: O=C(O)c1[nH]nnc1Sc1ccc(-c2ccc(N3CCCCC3)cc2)c(Cl)c1 [Compound 342, 2,2,2-trifluoroacetate] . Reported IC50?
Result :: < 100 nM

====

- experimentalSystem: Human GO (Homo sapiens)
- Construct: purchased Novus Biologicals NBP1-72412
- Sequence (Q9UJM8 1-370): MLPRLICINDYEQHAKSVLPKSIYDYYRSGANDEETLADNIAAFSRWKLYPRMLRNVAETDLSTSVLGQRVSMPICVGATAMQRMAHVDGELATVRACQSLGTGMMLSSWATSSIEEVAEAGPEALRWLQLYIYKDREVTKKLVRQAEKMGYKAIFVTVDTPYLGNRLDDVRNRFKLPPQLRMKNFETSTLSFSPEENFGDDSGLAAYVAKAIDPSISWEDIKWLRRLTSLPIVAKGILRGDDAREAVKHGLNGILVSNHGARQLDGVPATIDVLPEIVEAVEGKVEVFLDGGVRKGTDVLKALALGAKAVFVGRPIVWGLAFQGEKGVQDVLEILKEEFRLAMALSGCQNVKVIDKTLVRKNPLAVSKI
- assayInfo: GO enzymatic assay (coupled fluorescence/HRP assay, glycolate substrate)
- Assay type: biochemical
- measurementConditions: Table 1; read-out: Range (range of IC50 values calculated from the enzymatic assays)
propertyMeasured: IC50

| compound | experimentalResult |
| --- | --- |
| O=C(O)c1nn[nH]c1Oc1ccc(Cl)c2ccccc12 [Compound 92] | < 100 nM |
| O=C(O)c1[nH]nnc1-c1ccc(Oc2ccc(Cl)cc2)cc1 [Compound 127] | < 100 nM |
| O=C(O)c1[nH]nnc1Oc1ccc(-c2ccc(OC(F)(F)F)cc2)cc1 [Compound 87] | < 100 nM |

Query :: Query (compound): CC(C)Oc1cc(-c2nc(Sc3nn[nH]c3C(=O)O)cs2)ccc1Cl [Compound 24] ; field requested: IC50
Result :: < 100 nM

Query :: Consider the compound O=C(O)c1[nH]nnc1Oc1ccc2cc(Cl)ccc2c1 [Compound 106, 2,2,2-trifluoroacetate] and give its measured IC50.
Result :: < 100 nM

Query :: What value of IC50 has been reported for the following compound? O=C(O)c1[nH]nnc1OC1CC2CCC1C2 (stereo not drawn) [Compound 168]
Result :: < 100 nM

Query :: Field request: IC50 | item: COC(=O)c1[nH]nnc1Sc1ccc(-c2ccc(OC(F)(F)F)cc2)cc1 [Compound 33]
Result :: > 10000 nM

Query :: Suppose we examine the compound O=C(OC1CC1)c1[nH]nnc1Oc1ccc2c(c1)CCCC2 [Compound 116] ; what IC50 value has been reported?
Result :: > 10000 nM

Query :: Field request: IC50 | item: O=C(O)c1[nH]nnc1Oc1ccc(Cl)cc1Cl [Compound 95]
Result :: < 100 nM

====

# IC50 per record follows
- experimentalSystem: Human GO (Homo sapiens, UniProt Q9UJM8)
- Construct: purchased Novus Biologicals NBP1-72412
- assayInfo: GO enzymatic assay (coupled fluorescence/HRP assay, glycolate substrate)
- Format: biochemical
- measurementConditions: Table 2; read-out: Range (range of IC50 values calculated from the enzymatic assays)

// known answers, use as guide
| molecule | experimentalSystem | IC50 |
| --- | --- | --- |
| O=C(O)c1[nH]nnc1SC1CCC(c2cccc(OC(F)(F)F)c2)CC1 (centres unmarked) [Compound 326] | Human GO (Homo sapiens, UniProt Q9UJM8) | < 100 nM |
| O=C(O)c1[nH]nnc1Oc1cc(Cl)cc(OC(F)(F)F)c1 [Compound 358] | Human GO (Homo sapiens, UniProt Q9UJM8) | < 100 nM |
| O=C(O)c1[nH]nnc1Oc1ccc(C2CC(F)(F)C2)cc1 [Compound 268] | Human GO (Homo sapiens, UniProt Q9UJM8) | < 100 nM |
| O=C(O)c1[nH]nnc1OC1CCC2(CCCCC2)CC1 [Compound 283] | Human GO (Homo sapiens, UniProt Q9UJM8) | < 100 nM |
| O=C(O)c1[nH]nnc1CSc1ccc2cc(Cl)ccc2c1 [Compound 171, 2,2,2-trifluoroacetate] | Human GO (Homo sapiens, UniProt Q9UJM8) | < 100 nM |
| O=C(O)c1[nH]nnc1S[C@H]1CC[C@@H](c2cc(Cl)cc(Cl)c2)CC1 [Compound 331] | Human GO (Homo sapiens, UniProt Q9UJM8) | < 100 nM |
| O=C(O)c1[nH]nnc1C(F)(F)c1ccc2cc(Cl)ccc2c1 [Compound 199] | Human GO (Homo sapiens, UniProt Q9UJM8) | < 100 nM |
| O=C(O)c1[nH]nnc1O[C@H]1CC[C@@H](c2cc(Cl)cc(Cl)c2)CC1 [Compound 304] | Human GO (Homo sapiens, UniProt Q9UJM8) | < 100 nM |

Query :: Form field: reported IC50 of O=C(O)c1[nH]nnc1-c1cc2ccc(OC(F)(F)F)cc2cn1 [Compound 214]
Result :: 100 to 1000 nM

Query :: Need IC50, item O=C(O)c1[nH]nnc1Oc1cc(OCC2CCCC2)ccc1Cl [Compound 357]
Result :: < 100 nM

Query :: Entry O=C(O)c1[nH]nnc1C(F)(F)c1ccc(-c2ccc(Cl)cc2)cc1 [Compound 200, 2,2,2-trifluoroacetate] : reported IC50 = ?
Result :: < 100 nM

Query :: Fill in: IC50 of O=C(O)c1[nH]nnc1SC1CCN(c2ccc(C(F)(F)F)cc2)CC1 [Compound 324] is ___
Result :: < 100 nM

Query :: Recorded IC50 for O=C(O)c1[nH]nnc1-c1ccc2c(n1)CCCC2 [Compound 212] , please?
Result :: 1000 to 10000 nM

Query :: Query: IC50; subject: O=C(O)c1[nH]nnc1SCc1ccc(-c2ccc(OC(F)(F)F)cc2)cc1 [Compound 177]
Result :: < 100 nM

Query :: Need IC50, item O=C(O)c1[nH]nnc1Sc1ccc(-c2cccc(OCC3CC3)c2)cc1 [Compound 170, 2,2,2-trifluoroacetate]
Result :: < 100 nM

Query :: I am curious: what IC50 value has been reported for O=C(O)c1[nH]nnc1-c1cc(OCC2CC2)ccc1Cl [Compound 219] ?
Result :: 1000 to 10000 nM

Query :: Given the entry O=C(O)c1[nH]nnc1C(F)(F)c1ccc(-c2ccc(OC(F)(F)F)cc2)cc1 [Compound 198, 2,2,2-trifluoroacetate] , report its measured IC50.
Result :: < 100 nM

====

- experimentalSystem: Human GO (Homo sapiens)
- Construct: purchased Novus Biologicals NBP1-72412
- assayInfo: GO enzymatic assay (coupled fluorescence/HRP assay, glycolate substrate)
- Format: biochemical
- measurementConditions: Table 2; read-out: Range (range of IC50 values calculated from the enzymatic assays)
Overview of recorded IC50 for various compounds

| compound | propertyMeasured | experimentalResult |
| --- | --- | --- |
| O=C(O)c1[nH]nnc1SC1CCC(c2ccc(OC(F)(F)F)cc2)C1 (stereo not shown) | IC50 | < 100 nM |
| O=C(O)c1[nH]nnc1Oc1cccc(OC2CCCC2)c1 [Compound 375, 2,2,2-trifluoroacetate] | IC50 | < 100 nM |
| O=C(O)c1[nH]nnc1-c1ccc(Cl)cn1 [Compound 208, 2,2,2-trifluoroacetate] | IC50 | 100 to 1000 nM |

We next turn to a different compound, shown below.
Query :: Any idea what its IC50 is? The compound is `O=C(OCOC(=O)c1[nH]nnc1O[C@H]1CC[C@H](c2ccc(OC(F)(F)F)cc2)CC1)c1ccccc1`
Result :: > 10000 nM

====

- experimentalSystem: Human GO (Homo sapiens)
- Construct: purchased Novus Biologicals NBP1-72412
- assayInfo: GO enzymatic assay (coupled fluorescence/HRP assay, glycolate substrate)
- Type: biochemical
- measurementConditions: Table 1; read-out: Range (range of IC50 values calculated from the enzymatic assays)
pIC50: −log10 of the molar value.
propertyMeasured: pIC50

Recorded pIC50, per entry:
| compound | experimentalResult |
| --- | --- |
| O=C(O)c1[nH]nnc1N1CCc2ccccc2C1 [Compound 84, 2,2,2-trifluoroacetate] | 6.00 to 7.00 |
| O=C(O)c1[nH]nnc1Nc1ccc2cc(Cl)ccc2c1 [Compound 82, 2,2,2-trifluoroacetate] | 6.00 to 7.00 |
| O=C(O)c1[nH]nnc1Nc1ccc2cc(Br)ccc2c1 [Compound 85, 2,2,2-trifluoroacetate] | > 7.00 |

Now consider a different compound.
Query :: Reported pIC50 for Human GO (Homo sapiens), given O=C(O)c1[nH]nnc1Nc1ccc2ncsc2c1 [Compound 79] ?
Result :: 5.00 to 6.00
